# assay-system: catalytic domain of human PARP14 (Homo sapiens (Human))
# assay-details: Enzymatic assay for inhibition of PARP14 (DELFIA, auto-modification with biotin-NAD)
# experimental-parameters: auto-modification of PARP14 by biotin-NAD, 50 nM PARP14, 3 μM biotin-NAD
Structures can show the parent of a compound that is named as a salt.
metric: IC50

Study these solved cases before continuing.
{"columns": ["compound", "metric", "assay-value"],
 "data": [
  ["O=c1[nH]c(CSC2CCOCC2)nc2cc(NC3CCCC3)cc(CO)c12 [Example 224]", "IC50", "1 to 10 µM"],
  ["CN1CC[C@@H](SCc2nc3cc(NC4CCCC4)cc(F)c3c(=O)[nH]2)[C@@H](F)C1 (relative stereo) [Example 413]", "IC50", "< 1 µM"],
  ["O=c1[nH]c(CSC2CCCNCC2)nc2cc(NC3CCCC3)ccc12 (stereo not drawn) [Example 190]", "IC50", "< 1 µM"],
  ["Cc1cccc2c(=O)[nH]c(CSC3CCN(Cc4cnn(Cc5ccccc5)c4)CC3)nc12 [Example 154, trifluoroacetate]", "IC50", "< 1 µM"],
  ["O=c1[nH]c(CSC2CCOCC2)nc2c(Cl)cccc12 [Example 5]", "IC50", "1 to 10 µM"]
]}

Task: Tell me its IC50 given Cc1cncc(Nc2ccc3c(=O)[nH]c(CSC4CCOCC4)nc3c2)c1 [Example 92] as the entry.
Output: 1 to 10 µM

Task: Give the reported value of IC50 for this record: Cc1cccc2c(=O)[nH]c(CS[C@H]3CC[C@H](CN(C)C)CC3)nc12 [Example 69, Trifluoroacetate]
Output: < 1 µM

Task: Note down IC50 recorded for Cc1cccc2c(=O)[nH]c(CS[C@H]3CC[C@@H](N)CC3)nc12 [Example 50, Trifluoroacetic Acid]
Output: 1 to 10 µM

Task: Determine from records and report IC50 for O=c1[nH]c(CSC2CCOCC2)nc2cc(OCC3CCN(C4COC4)CC3)cc(F)c12 [Example 301]
Output: < 1 µM

====

molecules and their reported IC50
# assay-system: catalytic domain of human PARP14 (Homo sapiens (Human))
# assay-details: Enzymatic assay for inhibition of PARP14 (DELFIA, auto-modification with biotin-NAD)
# experimental-parameters: auto-modification of PARP14 by biotin-NAD, 50 nM PARP14, 3 μM biotin-NAD

Check out these entries, answers already filled in.
{"columns": ["substance-smiles", "IC50"],
 "data": [
  ["CC(=O)N1CCC(COc2cc(F)c3c(=O)[nH]c(CS[C@H]4CC[C@](C)(O)CC4)nc3c2)CC1", "< 1000 nM"],
  ["Cc1cc(OCC2CCOCC2)cc2nc(CSC3CCOCC3)[nH]c(=O)c12", "< 1000 nM"],
  ["CNc1ccc2c(=O)[nH]c(CSC3CCOCC3)nc2c1", "1000 to 10000 nM"]
]}

Task: Tell me IC50 reported for Nc1ccc2c(=O)[nH]c(CSC3CCOCC3)nc2c1
Output: > 10000 nM

Task: Look up and report measured IC50 for this entry: O=c1[nH]c(CSC2CCOCC2)nc2cc(NCCC3CCOCC3)ccc12
Output: < 1000 nM

====

# assay-system: catalytic domain of human PARP14 (Homo sapiens (Human), UniProt Q460N5)
# Sequence (Q460N5 1611-1801): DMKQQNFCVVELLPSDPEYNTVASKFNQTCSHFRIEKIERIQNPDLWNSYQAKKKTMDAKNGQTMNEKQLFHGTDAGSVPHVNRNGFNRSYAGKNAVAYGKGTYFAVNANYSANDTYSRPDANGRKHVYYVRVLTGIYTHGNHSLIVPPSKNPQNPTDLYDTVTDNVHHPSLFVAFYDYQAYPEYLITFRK
# assay-details: Enzymatic assay for inhibition of PARP14 (DELFIA, auto-modification with biotin-NAD)
# experimental-parameters: auto-modification of PARP14 by biotin-NAD, 50 nM PARP14, 3 μM biotin-NAD
Counter-ions that a name gives are not always drawn.
metric: IC50

Worked cases, answers included:
{"columns": ["compound", "metric", "assay-value"],
 "data": [
  ["O=c1[nH]c(CSC2CCOCC2)nc2cc(Nc3ccccc3)ccc12 [Example 79]", "IC50", "< 1000 nM"],
  ["Cc1cccc2c(=O)[nH]c(CSC3CCN(C(=O)CCN(C)C)CC3)nc12 [Example 168]", "IC50", "1000 to 10000 nM"],
  ["CC(=O)N[C@H]1CC[C@H](SCc2nc3cc(OCC4CC4)cc(F)c3c(=O)[nH]2)CC1 [Example 330]", "IC50", "< 1000 nM"],
  ["Cc1cccc2c(=O)[nH]c(CSC3CCCOCC3)nc12 (stereo not drawn) [Example 198]", "IC50", "1000 to 10000 nM"],
  ["O=c1[nH]c(CSC2CCOCC2)nc2cc(OCC3CCOCC3)cc(Cl)c12 [Example 353]", "IC50", "< 1000 nM"],
  ["CC(=O)Nc1ccc2c(=O)[nH]c(CSC3CCOCC3)nc2c1 [Example 75]", "IC50", "> 10000 nM"]
]}

Task: Please report the measured IC50 for O=c1[nH]c(CSC2CCOCC2)nc2cc(NC3CCCC3)cc(Cl)c12 [Example 253]
Output: < 1000 nM

Task: Output measured IC50 for this item: Cc1ccncc1Nc1ccc2c(=O)[nH]c(CSC3CCOCC3)nc2c1 [Example 91]
Output: 1000 to 10000 nM

Task: Assign IC50 to the following record: Cc1cc(NC2CCCC2)cc2nc(CSC3CCNCC3)[nH]c(=O)c12 [Example 257, hydrochloride]
Output: < 1000 nM
